Assay: ATG_SREBP_CIS: Attagene CIS-FACTORIAL HepG2 Assay for human Sterol Regulatory Element Binding (SREBP) (AID 2282962)
Conditions: HepG2 Attagene cis-factorial SREBP reporter, mRNA; actives raise or lower the signal
Active and inactive are the calls of the source. How the source made its calls: active means hit-call score of the fitted dose curve at least 0.9, where 1 is the maximum; inactive means score below 0.9.
Outcomes: T (active), F (inactive)

structure=C[C@]12C=CC(=O)C=C1CC[C@@H]1[C@@H]2C(=O)C[C@@]2(C)[C@H]1CC[C@]2(O)C(=O)CO assignedcategory=F
structure=Oc1ccc2c(c1)OC[C@@H](N1CCC(O)(c3ccc(F)cc3)CC1)[C@H]2O assignedcategory=F
structure=CC1(C)NC(=O)NC1=O assignedcategory=F
structure=Cc1oc(-c2ccccc2)nc1CCOc1cccc2c1ccn2CCC(=O)O assignedcategory=T
structure=C=CCc1ccc(O)c(OC)c1 assignedcategory=F
structure=CNCc1cc(F)ccc1Oc1ccc(Cl)c(Cl)c1 assignedcategory=F

* * *

Biological target: human Matrix Metalloproteinase-3 (MMP3), MMP3 (gene 4314)
Test: NVS_ENZ_hMMP3: NovaScreen (NVS) Enzymatic Assay for human Matrix Metalloproteinase-3 (MMP3) (AID 2283185)
Results filed as inconclusive are left out. Activity calls are given as the source filed them. How the source made its calls: active means hit-call score of the fitted dose curve at least 0.9, where 1 is the maximum; inconclusive means response in the unintended direction; inactive means score below 0.9.
Outcomes: label 1 for active, label 0 for inactive

structure=CNC(=O)[C@H]1O[C@@H](n2cnc3c(NCc4cc(Cl)ccc4OCc4cc(C)no4)ncnc32)[C@H](O)[C@@H]1N subjectoftest="human Matrix Metalloproteinase-3 (MMP3), MMP3 (gene 4314)" assignedcategory="label 0"
structure=CN[C@H]1CC[C@@H](c2ccc(Cl)c(Cl)c2)c2ccc(S(N)(=O)=O)cc21 subjectoftest="human Matrix Metalloproteinase-3 (MMP3), MMP3 (gene 4314)" assignedcategory="label 0"
structure=CN1CCN(Cc2cc(-c3ccc4[nH]c(=O)oc4c3)co2)[C@@H](c2ccc(F)cc2)C1 subjectoftest="human Matrix Metalloproteinase-3 (MMP3), MMP3 (gene 4314)" assignedcategory="label 0"
structure=COc1cc(C=O)ccc1O subjectoftest="human Matrix Metalloproteinase-3 (MMP3), MMP3 (gene 4314)" assignedcategory="label 1"
structure=Nc1ccc2c(c1)C(=O)c1ccccc1C2=O subjectoftest="human Matrix Metalloproteinase-3 (MMP3), MMP3 (gene 4314)" assignedcategory="label 1"
structure=NCC1(Cc2noc(=O)[nH]2)CCCCC1 subjectoftest="human Matrix Metalloproteinase-3 (MMP3), MMP3 (gene 4314)" assignedcategory="label 0"

* * *

Experiment: ATG_VDRE_CIS: Attagene CIS-FACTORIAL HepG2 Assay for human Vitamin D Receptor Element (VDRE) (AID 2282968)
Conditions: HepG2 VDRE cis-reporter transcription, actives raise or lower the signal
Activity calls are given as the source filed them. How the source made its calls: active means hit-call score of the fitted dose curve at least 0.9, where 1 is the maximum; inactive means score below 0.9.
Outcomes: yes (1) = active, no (0) = inactive

compound=CCCCCC(=O)O assignedcategory="no (0)"
compound=CCCCN(CCCC)CCCC assignedcategory="no (0)"
compound=COc1ccc(S(=O)(=O)N2C(=O)[C@@](c3ccccc3OC)(N3C[C@H](O)C[C@H]3C(=O)N(C)C)c3cc(Cl)ccc32)c(OC)c1 assignedcategory="yes (1)"
compound=Cc1c(C(=O)O)c(O)cc2c1C(=O)c1c(O)c([C@@H]3O[C@H](CO)[C@@H](O)[C@H](O)[C@H]3O)c(O)c(O)c1C2=O assignedcategory="no (0)"
compound=COC(=O)c1ccc(O)cc1 assignedcategory="no (0)"
compound=Cc1cccc(Nc2cc(Cl)nc(SCC(=O)O)n2)c1C assignedcategory="no (0)"
compound=CCOC(=O)C(C)(C)Oc1ccc(Cl)cc1 assignedcategory="no (0)"
compound=Cc1oc(-c2ccccc2)nc1CCOc1cccc2c1ccn2CCC(=O)O assignedcategory="no (0)"
compound=Cc1ccccc1Cl assignedcategory="no (0)"
compound="CC(CO)OC(C)CO (configuration not stated) (tested in a mixture with another compound)" assignedcategory="no (0)"
compound=CC1(C)NC(=O)NC1=O assignedcategory="no (0)"
compound=CCCCc1ccc2c(n1)[C@@H](c1ccc(OC)cc1C[C@H](C)C(=O)O)[C@H](C(=O)O)[C@H]2c1ccc2c(c1)OCO2 assignedcategory="no (0)"

* * *

Assay: APR_HepG2_CellLoss_24hr: Apredica 24-hour HepG2 Assay for Cell Loss (AID 2282908)
Conditions: high-content imaging
Calls of active or inactive are those of the source. How the source made its calls: active means hit-call score of the fitted dose curve at least 0.9, where 1 is the maximum; inactive means score below 0.9.
Outcomes: active, inactive

compound=CCCCCCCCCCC assignedcategory=inactive
compound=CC(C)c1ccc(C(=O)N=C(N)N)cc1S(C)(=O)=O assignedcategory=inactive
compound=CCCc1cc(=O)[nH]c(=S)[nH]1 assignedcategory=inactive
compound=CCCCCCCCCCCCCCCCCC(=O)O assignedcategory=inactive
compound="CC(CO)OC(C)CO (stereo not drawn) (tested in a mixture with another compound)" assignedcategory=inactive
compound=CN[C@H]1CC[C@@H](c2ccc(Cl)c(Cl)c2)c2ccc(S(N)(=O)=O)cc21 assignedcategory=active
compound=CCCCCCCCCCCCCCCC assignedcategory=inactive
compound=Cc1ccc(C)c(C)c1 assignedcategory=inactive
compound=Nc1ccc(S(=O)(=O)c2ccc(N)cc2)cc1 assignedcategory=inactive
compound=Oc1ccc2ccccc2c1N=Nc1ccccc1 assignedcategory=active
compound=O=c1c(O)c(-c2ccc(O)c(O)c2)oc2cc(O)cc(O)c12 assignedcategory=inactive
compound=COc1cc(S(=O)(=O)O)c(C)cc1N=Nc1c(O)ccc2cc(S(=O)(=O)O)ccc12 assignedcategory=inactive
compound=CC(C)(C)c1cc(O)c(C(C)(C)C)cc1O assignedcategory=active
compound=CC1=C(/C=C/C(C)=C/C=C/C(C)=C/CO)C(C)(C)CCC1 assignedcategory=active
compound=Cc1cccc([N+](=O)[O-])c1C assignedcategory=inactive
compound=OC[C@@H](O)[C@@H](O)[C@H](O)[C@H](O)CO assignedcategory=inactive
compound=CCCCOC(=O)CCCCCCCCC(=O)OCCCC assignedcategory=inactive
compound=Cc1cc(NC(=O)C(=O)O)cc(C)c1Oc1ccc(O)c2c1CCC2 assignedcategory=inactive
compound=CCOC(=O)CCC(=O)OCC assignedcategory=inactive
compound=CCCCN(CCCC)CCCC assignedcategory=inactive
compound=O=C(O)CCCCC(=O)O assignedcategory=inactive
compound=Cc1ccc(C(C)C)c(O)c1 assignedcategory=inactive
compound=CCOc1ccc2c(c1)C(C)=CC(C)(C)N2 assignedcategory=inactive
compound=Clc1cc(Cl)c(Cl)cc1Cl assignedcategory=inactive
compound=NCC1(Cc2noc(=O)[nH]2)CCCCC1 assignedcategory=inactive
compound=CN1CCCC1=O assignedcategory=inactive
compound=CCNc1cccc(C)c1 assignedcategory=inactive
compound=C[C@]12C=CC(=O)C=C1CC[C@@H]1[C@@H]2C(=O)C[C@@]2(C)[C@H]1CC[C@]2(O)C(=O)CO assignedcategory=inactive

* * *

Test: CEETOX_H295R_TESTO: CeeTox H295R High-throughput Steroidogenesis Assay for Testosterone (TESTO) (AID 2283457);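 on AC50: cells exposed to chemicals for 48 h before medium collection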
Settings: actives raise or lower the signal
Active and inactive are the calls of the source. The calls were made as follows: active = hit-call score of the fitted dose curve at least 0.9, where 1 is the maximum; inactive = score below 0.9.
attributeMeasured: AC50

compound=CCOc1ccc2c(c1)C(C)=CC(C)(C)N2 attributemeasured=AC50 result=inactive
compound=COc1ccc(C)cc1N attributemeasured=AC50 result=inactive
compound=COc1ccc(S(=O)(=O)N2C(=O)[C@@](c3ccccc3OC)(N3C[C@H](O)C[C@H]3C(=O)N(C)C)c3cc(Cl)ccc32)c(OC)c1 attributemeasured=AC50 result=inactive
compound="Cc1nc(-c2ccc3c(c2)CCN(CCC2CCC(NC(=O)/C=C/c4ccc(F)cc4)CC2)CC3)no1 (stereo unspecified)" attributemeasured=AC50 result="248 nM (active)"
compound=Cc1cc(NC(=O)C(=O)O)cc(C)c1Oc1ccc(O)c2c1CCC2 attributemeasured=AC50 result=inactive
compound=Cc1cccc(Nc2cc(Cl)nc(SCC(=O)O)n2)c1C attributemeasured=AC50 result=inactive

* * *

Read-out: UDP glucuronosyltransferase (UGT1A6), UGT1A6 (gene 54578)
Experiment: LTEA_HepaRG_UGT1A6: Life Technologies and Expression Analysis (LTEA) Assay for UDP glucuronosyltransferase (UGT1A6) using HepaRG (AID 2283539)
Conditions: mRNA level, 48 h; actives raise or lower the signal
Calls of active or inactive are those of the source. The calls were made as follows: active = hit-call score of the fitted dose curve at least 0.9, where 1 is the maximum; inactive = score below 0.9.
Outcomes: class 1 = active, class 0 = inactive

compound=O=C(OCCCCCOC(=O)c1ccccc1)c1ccccc1 assignedcategory="class 0"
compound=CCCCCCC(=O)OCC assignedcategory="class 0"
compound=CNCc1cc(F)ccc1Oc1ccc(Cl)c(Cl)c1 assignedcategory="class 1"
compound=CN1CCCC1=O assignedcategory="class 0"
compound=CCc1c(C(=O)NN2CCCCC2)nn(-c2ccc(Cl)cc2Cl)c1-c1ccc(Br)cc1 assignedcategory="class 1"
compound=c1cc(-c2ccncc2)ccn1 assignedcategory="class 0"
compound=CC1=C(/C=C/C(C)=C/C=C/C(C)=C/CO)C(C)(C)CCC1 assignedcategory="class 0"
compound=CC=Cc1ccc(O)c(OC)c1 assignedcategory="class 0"
compound=CCCCN(CCCC)CCCC assignedcategory="class 0"
compound=Cc1ccc(C(C)C)c(O)c1 assignedcategory="class 0"
compound="CC(CO)OC(C)CO (stereo not given) (tested in a mixture with another compound)" assignedcategory="class 0"
compound=CCOC(=O)C(C)(C)Oc1ccc(Cl)cc1 assignedcategory="class 0"
compound=COc1cc(C=O)ccc1O assignedcategory="class 0"
compound=Oc1ccc2ccccc2c1N=Nc1ccccc1 assignedcategory="class 0"
compound=Cc1ccc(Cl)cc1 assignedcategory="class 0"
compound="CC1(C)CC(N=C=O)CC(C)(CN=C=O)C1 (stereo not given)" assignedcategory="class 0"
compound=COc1ccc(C)cc1N assignedcategory="class 0"
compound=Nc1nc(N)c2nc(CNc3ccc(C(=O)N[C@@H](CCC(=O)O)C(=O)O)cc3)cnc2n1 assignedcategory="class 0"
compound=O=C(N[C@@H](Cc1ccccc1)[C@@H](O)C(=O)N1C[C@@H](O)[C@@H](O)C1)c1cc2cc(Cl)ccc2[nH]1 assignedcategory="class 0"
compound=Cc1cc(=O)[nH]c(=S)[nH]1 assignedcategory="class 0"
compound=Cc1ccccc1Cl assignedcategory="class 0"
compound=CN[C@H]1CC[C@@H](c2ccc(Cl)c(Cl)c2)c2ccc(S(N)(=O)=O)cc21 assignedcategory="class 1"
compound=CCCCCCCC=O assignedcategory="class 0"
compound=COCCOCCOC assignedcategory="class 0"
compound=C1CCC(SSC2CCCCC2)CC1 assignedcategory="class 0"
compound=CCCCCCOCCO assignedcategory="class 0"
compound=CC(=O)Oc1ccccc1C(=O)O assignedcategory="class 0"
compound=Nc1ccccc1N assignedcategory="class 1"
compound=CCCCCCCCCCCCCO assignedcategory="class 0"
compound=CCCCCCCCCCCCCCCCCC(=O)O assignedcategory="class 0"

The measurements presented in this section are drawn from PubChem BioAssay (EPA / NIEHS).
